Values from PubChem BioAssay (NCI)

Test system: IGROV1 ovarian
Assay: NCI tumour cell line growth inhibition, 48 h
Please provide measured log10(TGI) for the entries that follow.
In our notation, the value equals log10 of TGI in µM.

Worked cases, answers included:
molecule: CCCCCCCN1C(=O)C(O)(c2ccc(C3(O)C(=O)N(CCCCCCC)c4ccccc43)s2)c2ccccc21 (stereo not given)
measurement: 0.63
--
molecule: COc1ccc(C(=O)COc2cccc(/C=C3\CSc4ccc(C)cc4C3=O)c2)cc1
measurement: 1.64
--
molecule: O=[N+]([O-])c1ccc2ncccc2c1Cl
measurement: 1.14
--
molecule: CCC[CH2][Sn]([CH2]CCC)([O]C(=O)C1CCC(=O)N1)[O]C(=O)C1CCC(=O)N1 (stereo not given)
measurement: 0.39

Quick batch: log10(TGI) for everything below.
1. O=[N+]([O-])c1ccc(Sc2c3ccccc3nc3ccccc23)nc1
2. COc1cc([C@@H]2c3cc4c(cc3[C@@H](NC(=O)c3cccc(F)c3)C3COC(=O)[C@@H]32)OCO4)cc(OC)c1O (stereo not given in full)

Response:
[1.49, 1.03]

Fill in log10(TGI) for each of the 2 molecules listed.
1. CCCCCC/C=C\CCCCCCCCCC1=CC(=O)C=C(OC)C1=O
2. O=C(c1ccccc1)c1sc2c(=O)c(C(=O)c3ccccc3)c(C(=O)c3ccccc3)sc2c(=O)c1C(=O)c1ccccc1

Response:
0.59
1.84

----------
Tested on: M19-MEL melanoma
Experiment: NCI tumour cell line growth inhibition, 48 h
Assignment: determine reported TGI for the given compounds.

Some entries whose results are on file:
compound: COc1cc2c(cc1OC)C(=O)C(C1=C(SC(=N)N)C(=O)c3cc(OC)c(OC)cc31)C2 (stereo unspecified)
TGI: > 100 µM

compound: CC(=O)NNc1nc(C)c(C(/C=C/c2ccc(Cl)cc2)=N/NC(=O)C[N+](C)(C)C)s1
TGI: > 100 µM

compound: CN(C)c1n/c(=N/c2ncn[nH]2)ss1
TGI: > 100 µM

List reported TGI for each of these compounds:
1. N=C(N)SCc1cccc2c(=O)cc(-c3ccccc3)oc12
2. O=C1CC(=O)N(CCc2ccccc2)S(=O)(=O)N1CCc1ccccc1
3. Cn1c2c(c3ccccc31)CCN(CCCCN1CCN(c3cccc(Cl)c3)CC1)C2=O

Response:
1: 49.9 µM; 2: > 100 µM; 3: 25.5 µM

----------
Test system: SF-539 CNS
Test: NCI tumour cell line growth inhibition, 48 h
Assignment: determine reported TGI for the given compounds.
Give bare numbers, in µM.

Example entries and their recorded answers appear below.
compound: C=CCNC1=C2C[C@@H](C)C[C@@H](OC)[C@H](OC(=O)CN)[C@H](C)/C=C(\C)[C@@H](OC(N)=O)[C@H](OC)/C=C\C=C(/C)C(=O)NC(=CC1=O)C2=O
measurement_units: µM
measurement: 15.9

compound: COc1ccc2c(c1)[n+](=O)c(C(=O)/C=C/c1cc(OC)c(OC)c(OC)c1)c(C)n2[O-]
measurement_units: µM
measurement: 29.7

compound: CCC[CH2][Sn]([CH2]CCC)([O]C(=O)C1CCC(=O)N1)[O]C(=O)C1CCC(=O)N1 (centres undefined)
measurement_units: µM
measurement: 0.414

compound: O=C(c1ccccc1)c1sc2c(=O)c(C(=O)c3ccccc3)c(C(=O)c3ccccc3)sc2c(=O)c1C(=O)c1ccccc1
measurement_units: µM
measurement: 51.1

compound: N[C@@H]1CCCN(c2c(/C=C3\SC(=O)NC3=O)cccc2-c2ccccc2)C1
measurement_units: µM
measurement: 22.2

Kindly give each listed record's TGI.
1. CCCCn1sc(=O)n(Cc2ccc(CNC(=O)OCc3ccc4c(Br)cc(Br)c(O)c4n3)cc2)c1=O
2. CC(=O)OC1CC[C@]2(C)C3CC[C@@]4(C)C(CCC4[C@H](C)CCCC(C)C)[C@@H]3CCC2(Br)C1 (some centres undefined)
3. O=C1CC(=O)N(CCc2ccccc2)S(=O)(=O)N1CCc1ccccc1
4. COc1cc2nc3cc([N+](=O)[O-])ccc3c(NCCCNCC(C)(C)O)c2cc1OC

Response:
0.633
18.5
43.5
2.58
